target: Beta-1 adrenergic receptor (Cavia porcellus, UniProt B0FL73); assay: Inhibition of beta1-adrenergic receptor in guinea pig auricle assessed as reversal of isoproterenol-induced effect; conditions: read-out: pA2 (converted)
Sequence (B0FL73 whole entry): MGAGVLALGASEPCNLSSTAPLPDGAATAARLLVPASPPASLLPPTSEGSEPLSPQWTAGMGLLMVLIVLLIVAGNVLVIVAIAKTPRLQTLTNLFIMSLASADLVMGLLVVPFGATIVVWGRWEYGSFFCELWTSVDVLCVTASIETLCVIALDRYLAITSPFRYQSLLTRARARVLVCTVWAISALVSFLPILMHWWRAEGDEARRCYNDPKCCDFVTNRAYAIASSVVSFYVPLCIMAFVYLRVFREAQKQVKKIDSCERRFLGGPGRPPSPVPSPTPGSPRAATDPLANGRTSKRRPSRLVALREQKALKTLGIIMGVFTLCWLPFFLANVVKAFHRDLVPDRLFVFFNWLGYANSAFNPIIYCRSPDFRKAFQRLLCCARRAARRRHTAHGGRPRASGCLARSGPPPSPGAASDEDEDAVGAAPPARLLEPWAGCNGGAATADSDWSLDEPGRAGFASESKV
# Lookup of reported Kb keyed by entry
Kindly answer with a numeric value in µM, unit omitted.

compound | assay-endpoint | quantitative-readout
CC1(C)NC1C(O)c1ccc2ccccc2c1 (centres undefined) | Kb | 344
CC1(C)NC1C(O)c1ccccc1 (stereo in doubt; 1b) | Kb | 344
CC1(C)NC1C(O)c1ccc(Cl)c(Cl)c1 (centres undefined) | Kb | 17.4

Recorded Kb (compound CC1(C)NC1C(O)c1ccccc1 (stereo in doubt; 1a) ): 43.2

* * *

molecular target: Beta-2 adrenergic receptor (Cavia porcellus, UniProt Q8K4Z4); assay: Inhibition of beta2-adrenergic receptor in guinea pig tracheal chain assessed as reversal of isoproterenol-induced effect after 15 mins; parameters: species or system Trachea; settings: read-out: pA2 (converted)
Sequence (Q8K4Z4 whole entry): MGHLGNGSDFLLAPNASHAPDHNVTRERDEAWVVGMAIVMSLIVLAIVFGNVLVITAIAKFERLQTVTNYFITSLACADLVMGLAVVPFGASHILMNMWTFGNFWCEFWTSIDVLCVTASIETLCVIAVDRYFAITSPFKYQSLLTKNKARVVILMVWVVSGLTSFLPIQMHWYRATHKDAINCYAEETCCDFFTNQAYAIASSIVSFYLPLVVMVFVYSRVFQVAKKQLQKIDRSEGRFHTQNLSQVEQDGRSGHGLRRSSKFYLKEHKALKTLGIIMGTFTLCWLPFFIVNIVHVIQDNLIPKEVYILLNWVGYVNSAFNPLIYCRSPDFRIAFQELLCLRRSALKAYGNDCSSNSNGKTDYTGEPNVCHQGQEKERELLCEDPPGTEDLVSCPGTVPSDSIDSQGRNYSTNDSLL
# Lookup of reported Kb keyed by entry
Kindly answer with a numeric value in nM, unit omitted.

Solved entries (count: 3):
compound | Kb, nM
CC1(C)NC1C(O)c1ccccc1 (stereo in doubt; 1b) | 64.4
CC1(C)NC1C(O)c1ccccc1 (stereo in doubt; 1a) | 61.9
CC1(C)NC1C(O)c1ccc(Cl)c(Cl)c1 (centres undefined) | 398

Recorded Kb (compound CC1(C)NC1C(O)c1ccc2ccccc2c1 (centres undefined) ): 3.04
